# Tested on: HepG2
# Assay comment: Cytotoxicity in human HepG2 cells assessed as reduction in cell viability incubated for 72 hrs by MTT assay
# Format: functional, cell-based
# Condition parameters: HepG2, 72 h
Reported property: IC50 (µM)
Give bare numbers, in µM.

Please review the entries below; each comes with its answer.
COc1ccc(/C=C/C(=O)O[C@H]2CC[C@]3(C)[C@H]4C(=O)C=C5[C@H]6C[C@@](C)(C(=O)O)CC[C@]6(C)CC[C@@]5(C)[C@]4(C)CC[C@H]3C2(C)C)cc1 | 31.2
COc1cccc(/C=C/C(=O)O[C@H]2CC[C@]3(C)[C@H]4C(=O)C=C5[C@H]6C[C@@](C)(C(=O)O)CC[C@]6(C)CC[C@@]5(C)[C@]4(C)CC[C@H]3C2(C)C)c1 | 12.7
COc1ccc(OC)c(/C=C/C(=O)O[C@H]2CC[C@]3(C)[C@H]4C(=O)C=C5[C@H]6C[C@@](C)(C(=O)O)CC[C@]6(C)CC[C@@]5(C)[C@]4(C)CC[C@H]3C2(C)C)c1 | 25.4

Please find the next compound below.
query: Given the compound COc1cccc(/C=C/C(=O)O[C@H]2CC[C@]3(C)[C@H]4C(=O)C=C5[C@H]6C[C@@](C)(C(=O)O)CC[C@]6(C)CC[C@@]5(C)[C@]4(C)CC[C@H]3C2(C)C)c1OC , what is its reported IC50?
result: 24.4

---

# Tested on: EA.hy 926
# Assay comment: Cytotoxicity in human EAhy926 cells assessed as reduction in cell viability incubated for 72 hrs by MTT assay
# Assay type: cell-based
# Condition parameters: EA.hy 926, 72 h
What IC50 was measured for each of the following?
Numbers only, in µM.

COc1cccc(/C=C/C(=O)O[C@H]2CC[C@]3(C)[C@H]4C(=O)C=C5[C@H]6C[C@@](C)(C(=O)O)CC[C@]6(C)CC[C@@]5(C)[C@]4(C)CC[C@H]3C2(C)C)c1OC | 25

query: Give the reported IC50 for CC1(C)[C@@H](OC(=O)/C=C/c2ccccc2)CC[C@]2(C)[C@H]3C(=O)C=C4[C@H]5C[C@@](C)(C(=O)O)CC[C@]5(C)CC[C@@]4(C)[C@]3(C)CC[C@@H]12 (system: EA.hy 926).
result: 28.9

---

# System: MCF7
# Assay comment: Cytotoxicity in human MCF7 cells assessed as reduction in cell viability incubated for 24 hrs by MTT assay
# Assay type: functional, cell-based
# Condition parameters: MCF7, 24 h
Reported property: log10(IC50) (log10 of the value in µM)
All values: base-10 log of IC50 in µM.

Please review the entries below; each comes with its answer.
C[C@@H]1O[C@@H](O[C@H]2CC[C@@]3(C)[C@@H](CC[C@]4(C)[C@@H]3CC=C3[C@H]5CC(C)(C)CC[C@]5(C(=O)O)CC[C@]34C)[C@]2(C)CO)[C@H](O)[C@H](O)[C@H]1O[C@@H]1O[C@H](CO)[C@@H](O)[C@H](O)[C@H]1O | 1.62
COC(=O)/C=C/c1ccc(OC)c(OC(=O)[C@@]2(C)CC[C@]3(C)CC[C@]4(C)C(=CC(=O)[C@@H]5[C@@]6(C)CC[C@H](OC(=O)[C@@H](N)CC[Se]C)C(C)(C)[C@@H]6CC[C@]54C)[C@H]3C2)c1 | 0.71
CCOC(=O)/C=C/c1ccc(OC)c(OC(=O)[C@@]2(C)CC[C@]3(C)CC[C@]4(C)C(=CC(=O)[C@@H]5[C@@]6(C)CC[C@H](OC(=O)[C@@H](N)CCSC)C(C)(C)[C@@H]6CC[C@]54C)[C@H]3C2)c1 | 0.94
COC(=O)/C=C/c1ccc(OC)c(OC(=O)[C@@]2(C)CC[C@]3(C)CC[C@]4(C)C(=CC(=O)[C@@H]5[C@@]6(C)CC[C@H](OC(=O)[C@@H](N)CCSC)C(C)(C)[C@@H]6CC[C@]54C)[C@H]3C2)c1 | 0.94
CCOC(=O)/C=C/c1ccc(OC(=O)[C@@]2(C)CC[C@]3(C)CC[C@]4(C)C(=CC(=O)[C@@H]5[C@@]6(C)CC[C@H](OC(=O)[C@@H](N)CC[Se]C)C(C)(C)[C@@H]6CC[C@]54C)[C@H]3C2)cc1 | 0.38

query: Given the compound C[C@@H]1O[C@@H](O[C@H]2CC[C@@]3(C)[C@@H](CC[C@]4(C)[C@@H]3CC=C3[C@H]5CC(C)(C)CC[C@]5(C(=O)O)CC[C@]34C)[C@]2(C)CO)[C@H](O)[C@H](O)[C@H]1O[C@@H]1OC[C@H](O)[C@H](O)[C@H]1O , what is its reported log10(IC50)?
result: 1.62
